assayed.target: IGF-IR on human tumour cells (H292, MCF-7, RH41) (human, UniProt P08069 31-1367)
protocol.details: cell-based or functional assay
Overview of reported pIGFR IC50 across a group of binders:
# number only, unit nM dropped from output

binder	property	numeric.readout
I1-GS10-E5(S91C) pegylated (designed binder, PEG on Cys at position 91 of E5 (position of SEQ ID NO: 1), also called I1-GS10-E5(S91C)(8)) MGVSDVPRDLEVVAATPTSLLISWSARLKVARYYRITYGETGGNSPVQEFTVPKNVYTATISGLKPGVDYTITVYAVTRFRDYQPISINYRTEIEKGSGSGSGSGSGSGSGSGSGSVSDVPRDLEVVAATPTSLLISWWAPVDRYQYYRITYGETGGNSPVQEFTVPRDVYTATISGLKPGVDYTITVYAVTDYKPHADGPHTYHESPICINYRTEHHHHHH	pIGFR IC50	2.1
I1(S62C)-GS10-E5 pegylated (designed binder, PEG on Cys at position 62 of I1 (position of SEQ ID NO: 1), also called I1(S62C)-GS10-E5(5)) MGVSDVPRDLEVVAATPTSLLISWSARLKVARYYRITYGETGGNSPVQEFTVPKNVYTATICGLKPGVDYTITVYAVTRFRDYQPISINYRTEIEKGSGSGSGSGSGSGSGSGSGSVSDVPRDLEVVAATPTSLLISWWAPVDRYQYYRITYGETGGNSPVQEFTVPRDVYTATISGLKPGVDYTITVYAVTDYKPHADGPHTYHESPISINYRTEHHHHHH	pIGFR IC50	1.9
I1-GS10-E5 pegylated without the 6HIS tag (designed binder, PEG on the Cys of the C-terminal Cys tail, Whether the D-to-E change in the tail of the first monomer applies to this construct is not clear; also called I1-GS10-E5 pegylated(1)) MGVSDVPRDLEVVAATPTSLLISWSARLKVARYYRITYGETGGNSPVQEFTVPKNVYTATISGLKPGVDYTITVYAVTRFRDYQPISINYRTEIDKGSGSGSGSGSGSGSGSGSGSVSDVPRDLEVVAATPTSLLISWWAPVDRYQYYRITYGETGGNSPVQEFTVPRDVYTATISGLKPGVDYTITVYAVTDYKPHADGPHTYHESPISINYRTEIDKPCQ	pIGFR IC50	1.2

Lab note: next binder to report on.
The reported pIGFR IC50 of the binder I1-GS10-E5 pegylated, His-tagged (designed binder, 40 kDa branched PEG on the Cys of the C-terminal Cys tail, also called I1-GS10-E5 (with Peg)) MGVSDVPRDLEVVAATPTSLLISWSARLKVARYYRITYGETGGNSPVQEFTVPKNVYTATISGLKPGVDYTITVYAVTRFRDYQPISINYRTEIDKGSGSGSGSGSGSGSGSGSGSVSDVPRDLEVVAATPTSLLISWWAPVDRYQYYRITYGETGGNSPVQEFTVPRDVYTATISGLKPGVDYTITVYAVTDYKPHADGPHTYHESPISINYRTEIDKPCQHHHHHH was 2.2
